Here, each record is paired with measured koff data.
target: T1, Human IL-2 (human, UniProt P60568 21-153)
T1 construct: Soluble analyte in the SPR experiments; also called hIL-2; recombinant human IL-2
T1 sequence (P60568 21-153 limits assumed): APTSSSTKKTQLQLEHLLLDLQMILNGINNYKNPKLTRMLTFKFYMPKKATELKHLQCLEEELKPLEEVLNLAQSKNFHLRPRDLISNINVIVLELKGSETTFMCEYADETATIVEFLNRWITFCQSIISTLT
experiment: SPR, multi-cycle, antibody captured, hIL-2 analyte

{"binder": "BDG17.067 (antibody, human IgG1, kappa, L234A L235A, V domains shown, Humanized IgG1 with the LALA mutation; also called BDG17.0067) VH: QVQLVQSGAEVKKPGSSVKVSCKASGYSITDYLIHWVRQAPGQGLEWMGWIDPEDGVTAYAQKFQGRVTLTADTSTSTAYMELSSLRSEDTAVYYCARSLDYDPIYPFAYWGQGTLVTVSS VL: DIVMTQSPDSLAVSLGERATINCKSSQSLLRNGNQKNYLAWYQQKPGQPPKLLIYYASTGQSGVPDRFSGSGSGTDFTLTISSLQAEDVAVYYCQQHYVTPPTFGAGTKVEIKR", "koff, s⁻¹": 0.000372}
{"binder": "BDG17.043 (antibody, V domains shown, Humanized IgG1; also called BDG017.043) VH: QVQLVQSGAEVKKPGSSVKVSCKASGYSITDYLIHWVRQAPGQGLEWMGWIDPEDGVTAYAQKFQGRVTLTADTSTSTAYMELSSLRSEDTAVYYCARSLDYDPIYPFAYWGQGTLVTVSS VL: DIVMTQSPDSLAVSLGERATINCKSSQSLLRNGNQKNYLAWYQQKPGQPPKLLIYYASTGQSGVPDRFSGSGSGTDFTLTISSLQAEDVAVYYCQQHYVTPPTFGAGTKVEIK", "koff, s⁻¹": 0.000222}
{"binder": "BDG17.038 (antibody, V domains shown, Humanized IgG1) VH: QVQLVQSGAEVKKPGSSVKVSCKASGYSITDSLIHWVRQAPGQGLEWMGWIDPEDGEINYAQKFQGRVTLTADTSTSTAYMELSSLRSEDTAVYYCARSLDSYPIDPFAYWGQGTLVTVSS VL: DIVMTQSPDSLAVSLGERATINCKSSQSLLRNGNQQNYLAWYQQKPGQPPKLLIYYASTGQSGVPDRFSGSGSGTDFTLTISSLQAEDVAVYYCQQHYVTPPTFGAGTKVEIK", "koff, s⁻¹": 0.0002}
{"binder": "BDG17.069 (AU-007) (antibody, human IgG1, kappa, L234A L235A, V domains shown, Human IgG1-LALA) VH: QVQLVQSGAEVKKPGSSVKVSCKASGYSITDDLIHWVRQAPGQGLEWMGWIDPEDGETNYAQKFQGRVTLTADTSTSTAYMELSSLRSEDTAVYYCARSLDSTWIYPFAYWGQGTLVTVSS VL: DIVMTQSPDSLAVSLGERATINCKSSQSLLRRGNQKNHLAWYQQKPGQPPKLLIYDASTGQSGVPDRFSGSGSGTDFTLTISSLQAEDVAVYYCLQSYITPPTFGAGTKVEIKR", "koff, s⁻¹": 0.000487}
{"binder": "BDG17.066 (antibody, human IgG1, kappa, L234A L235A, V domains shown, Humanized IgG1 with the LALA mutation (L234A, L235A)) VH: QVQLVQSGAEVKKPGSSVKVSCKASGYSITDSLIHWVRQAPGQGLEWMGWIDPEDGEINYAQKFQGRVTLTADTSTSTAYMELSSLRSEDTAVYYCARSLDSYPIDPFAYWGQGTLVTVSS VL: DIVMTQSPDSLAVSLGERATINCKSSQSLLRNGNQQNYLAWYQQKPGQPPKLLIYYASTGQSGVPDRFSGSGSGTDFTLTISSLQAEDVAVYYCQQHYVTPPTFGAGTKVEIKR", "koff, s⁻¹": 0.000785}
